system: LG0703-F498-PDC complex spheroid growth; assay: Anticancer human tumor LG0703-F498-PDC patient-derived lung adenocarcinoma cell line growth inhibition [AhR]; settings: curve of first compound; second compound 3.16 µM
pIC50: −log10 of the molar value.
Use 6 as the dividing line for pIC50, with the line itself on the class 1 side and lower values as class 0.

# COMPOUND, CLASSIFICATION
records = [
    ("CCN(c1cc(-c2ccc(CN3CCOCC3)cc2)cc(C(=O)NCc2c(C)cc(C)[nH]c2=O)c1C)C1CCOCC1 + CC(CO)NC(=O)c1cc(-c2ccc(Cl)cc2)nn(-c2cnn(C)c2)c1=O", "class 0"),
    ("CC1COCCN1c1cc(-c2ccnn2C)c2ccnc(-c3ccn[nH]3)c2n1 (configuration not stated) + Cc1ccccc1N=Nc1ccc(NC(=O)c2ccnn2C)c(C)c1", "class 1"),
    ("CC(C)c1c(-c2ccccc2)nc2c(C#N)c[nH]n2c1=O + Cc1ccccc1N=Nc1ccc(NC(=O)c2ccnn2C)c(C)c1", "class 0"),
    ("O=C(C=Cn1cnc(-c2cc(C(F)(F)F)cc(C(F)(F)F)c2)n1)NNc1cnccn1 + Cc1cncc(-c2nc(NCCc3c[nH]c4ccccc34)c3ncn(C(C)C)c3n2)c1", "class 1"),
]

Ask | Does the compound COc1ccc([C@@H](O)c2cc(-c3ncnc4cc(N5CCOCC5)ccc34)c(F)cc2Cl)nn1 + Cc1ccccc1N=Nc1ccc(NC(=O)c2ccnn2C)c(C)c1 have recorded pIC50 that is 6 or more?
Reply | class 0

Ask | Is pIC50 at least 6? Consider CCc1c2c(nc3ccc(O)cc13)-c1cc3c(c(=O)n1C2)COC(=O)[C@]3(O)CC + CC(CO)NC(=O)c1cc(-c2ccc(Cl)cc2)nn(-c2cnn(C)c2)c1=O
Reply | class 1

Ask | Reported pIC50 reaches at least 6 for Cn1ncnc1C1c2n[nH]c(=O)c3cc(F)cc(c23)NC1c1ccc(F)cc1 (configuration not stated) + Cc1cncc(-c2nc(NCCc3c[nH]c4ccccc34)c3ncn(C(C)C)c3n2)c1 ?
Reply | class 1

* * *

Test system: LG0703-F498-PDC complex spheroid growth
Test: Anticancer human tumor LG0703-F498-PDC cell line growth inhibition [AhR];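 also: luminescence taken as a proxy for viable cell amount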;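 as to viability, T/C: percent of DMSO vehicle control where 100% means growth equal to vehicle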
Settings: second compound 0.1 µM; first compound 0.0316 µM; stronger effect = lower value
Excerpt: Multicellular complex tumor spheroid response to aryl hydrocarbon receptor antagonists in combination with a variety of drugs and investigational agents in selected tumor cell lines […] Compounds. […] If the clinical Cmax for an agent had not been determined, the highest concentration tested was 10 microM (Table 1). […]
PARAMETER MEASURED: viability, T/C (%)
Give your result in % as a bare value.

Consider the reported viability, T/C for these molecules:
# MOLECULE, UNIT STRING, OBSERVED VALUE
records = [
    ("CC1(C)CCC(CN2CCN(c3ccc(C(=O)NS(=O)(=O)c4ccc(NCC5CCOCC5)c([N+](=O)[O-])c4)c(Oc4cnc5[nH]ccc5c4)c3)CC2)=C(c2ccc(Cl)cc2)C1 + CC(CO)NC(=O)c1cc(-c2ccc(Cl)cc2)nn(-c2cnn(C)c2)c1=O", "%", 92.1),
    ("COc1cccc2c1C(=O)c1c(O)c3c(c(O)c1C2=O)CC(O)(C(=O)CO)CC3OC1CC(N)C(O)C(C)O1 (stereo not given) + CC(CO)NC(=O)c1cc(-c2ccc(Cl)cc2)nn(-c2cnn(C)c2)c1=O", "%", 82.7),
    ("Nc1ccn(C2OC(CO)C(O)C2(F)F)c(=O)n1 (stereo not given) + CC(CO)NC(=O)c1cc(-c2ccc(Cl)cc2)nn(-c2cnn(C)c2)c1=O", "%", 43.6),
    ("Cn1ncnc1C1c2n[nH]c(=O)c3cc(F)cc(c23)NC1c1ccc(F)cc1 (stereo not given) + Cc1cncc(-c2nc(NCCc3c[nH]c4ccccc34)c3ncn(C(C)C)c3n2)c1", "%", 91.3),
]

Proceed to the following item.
Ask | Quick one: viability, T/C of Nc1ccn(C2OC(CO)C(O)C2(F)F)c(=O)n1 (stereo not given) + Cc1cncc(-c2nc(NCCc3c[nH]c4ccccc34)c3ncn(C(C)C)c3n2)c1 ?
Reply | 40.6

* * *

Reported values of viability, T/C for individual entries
test system: LG0703-F498-PDC complex spheroid growth; test: Anticancer human tumor LG0703-F498-PDC cell line growth inhibition [AhR]; settings: second compound 0.1 µM; first compound 0.01 µM; stronger effect = lower value;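 also: luminescence taken as a proxy for viable cell amount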;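 as to viability, T/C: percent of DMSO vehicle control where 100% means growth equal to vehicle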
State the answer as a number, implicitly in %.

Answered cases to consult:
# MOLECULE, UNIT STRING, viability, T/C
records = [
    ("Nc1ncn(C2CC(O)C(CO)O2)c(=O)n1 (stereo not drawn) + Cc1cncc(-c2nc(NCCc3c[nH]c4ccccc34)c3ncn(C(C)C)c3n2)c1", "%", 98),
    ("Nc1ncn(C2CC(O)C(CO)O2)c(=O)n1 (stereo not drawn) + CC(CO)NC(=O)c1cc(-c2ccc(Cl)cc2)nn(-c2cnn(C)c2)c1=O", "%", 99.4),
]

Next molecule, please.
Ask | Requested read-out: viability, T/C. Entry: Nc1ncn(C2CC(O)C(CO)O2)c(=O)n1 (stereo not drawn) + Cc1ccccc1N=Nc1ccc(NC(=O)c2ccnn2C)c(C)c1
Reply | 99.1

* * *

system: LG0703-F498-PDC complex spheroid growth; assay: Anticancer human tumor LG0703-F498-PDC cell line growth inhibition [AhR]; conditions: second compound 1 µM; first compound 0.000949 µM; stronger effect = lower value;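 also: luminescence taken as a proxy for viable cell amount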;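 as to viability, T/C: percent of DMSO vehicle control where 100% means growth equal to vehicle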
PARAMETER MEASURED: viability, T/C (%)
Provide the reading as a plain figure in %.

# COMPOUND, UNIT STRING, OBSERVED VALUE
data = [
    ("Nc1ncn(C2CC(O)C(CO)S2)c(=O)n1 (stereo not drawn) + Cc1cncc(-c2nc(NCCc3c[nH]c4ccccc34)c3ncn(C(C)C)c3n2)c1", "%", 87.3),
    ("CCc1c2c(nc3ccc(O)cc13)-c1cc3c(c(=O)n1C2)COC(=O)[C@]3(O)CC + Cc1ccccc1N=Nc1ccc(NC(=O)c2ccnn2C)c(C)c1", "%", 86.5),
]

We now examine a further compound.
Ask | Requested read-out: viability, T/C. Entry: CCc1c2c(nc3ccc(O)cc13)-c1cc3c(c(=O)n1C2)COC(=O)[C@]3(O)CC + CC(CO)NC(=O)c1cc(-c2ccc(Cl)cc2)nn(-c2cnn(C)c2)c1=O
Reply | 79

* * *

System: LG0703-F498-PDC complex spheroid growth
Test: Anticancer human tumor LG0703-F498-PDC cell line growth inhibition [AhR];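 also: luminescence taken as a proxy for viable cell amount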;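 as to viability, T/C: percent of DMSO vehicle control where 100% means growth equal to vehicle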
Conditions: second compound 0.1 µM; first compound 0.3 µM; stronger effect = lower value
Excerpt: Multicellular complex tumor spheroid response to aryl hydrocarbon receptor antagonists in combination with a variety of drugs and investigational agents in selected tumor cell lines […] Compounds. […] If the clinical Cmax for an agent had not been determined, the highest concentration tested was 10 microM (Table 1). […]
PARAMETER MEASURED: viability, T/C (%)
Form entry: value (%) — number only.

Some solved entries appear below for comparison.
# MOLECULE, UNIT STRING, OBSERVED VALUE
measured = [
    ("CCc1c2c(nc3ccc(O)cc13)-c1cc3c(c(=O)n1C2)COC(=O)[C@]3(O)CC + CC(CO)NC(=O)c1cc(-c2ccc(Cl)cc2)nn(-c2cnn(C)c2)c1=O", "%", 26.3),
    ("CCc1c2c(nc3ccc(O)cc13)-c1cc3c(c(=O)n1C2)COC(=O)[C@]3(O)CC + Cc1ccccc1N=Nc1ccc(NC(=O)c2ccnn2C)c(C)c1", "%", 29.2),
    ("Nc1ncn(C2CC(O)C(CO)S2)c(=O)n1 (stereo not drawn) + Cc1cncc(-c2nc(NCCc3c[nH]c4ccccc34)c3ncn(C(C)C)c3n2)c1", "%", 105),
    ("O=C(C=Cn1cnc(-c2cc(C(F)(F)F)cc(C(F)(F)F)c2)n1)NNc1cnccn1 + CC(CO)NC(=O)c1cc(-c2ccc(Cl)cc2)nn(-c2cnn(C)c2)c1=O", "%", 40.6),
]

Ask | Given CCN(c1cc(-c2ccc(CN3CCOCC3)cc2)cc(C(=O)NCc2c(C)cc(C)[nH]c2=O)c1C)C1CCOCC1 + Cc1cncc(-c2nc(NCCc3c[nH]c4ccccc34)c3ncn(C(C)C)c3n2)c1 , state its recorded viability, T/C.
Reply | 102

Ask | I am curious: what viability, T/C value has been reported for O=C(C=Cn1cnc(-c2cc(C(F)(F)F)cc(C(F)(F)F)c2)n1)NNc1cnccn1 + Cc1cncc(-c2nc(NCCc3c[nH]c4ccccc34)c3ncn(C(C)C)c3n2)c1 ?
Reply | 40

Ask | I am curious: what viability, T/C value has been reported for Nc1ncn(C2CC(O)C(CO)S2)c(=O)n1 (stereo not drawn) + CC(CO)NC(=O)c1cc(-c2ccc(Cl)cc2)nn(-c2cnn(C)c2)c1=O ?
Reply | 91.8

Ask | Tell me the measured viability, T/C of CC(C)CC(NC(=O)C(Cc1ccccc1)NC(=O)c1cnccn1)B(O)O (stereo not drawn) + Cc1ccccc1N=Nc1ccc(NC(=O)c2ccnn2C)c(C)c1 , please.
Reply | 0.18
